- target: Neuropeptide Y receptor type 4 (Homo sapiens)
- assay-comment: Agonist activity at human neuropeptide Y Y4 receptor expressed in HEK293T-ARRB2 cells assessed as stimulation of beta-arrestin 2 recruitment by multimode plate reader
- Format: functional, cell-based
pEC50: −log10 of the molar value. Residues, ends and D or L forms follow the SMILES beside them.
Recorded measurements of pEC50, one per entry
experimental-readout: pEC50

1. CC(C)C[C@H](NC(=O)[C@@H]1CCCNC(=N)NC(=O)NCCCNC(=O)CCC(=O)N[C@@H](CCCNC(=N)N)C(=O)N[C@@H](Cc2ccc(O)cc2)C(=O)N1)C(=O)N[C@@H](CCCNC(=N)N)C(=O)N[C@@H](Cc1ccc(O)cc1)C(N)=O : 8.27
2. CC(C)C[C@H](NC(=O)[C@H](CCCNC(=N)NC(=O)NCCCCN)NC(=O)[C@H](Cc1ccc(O)cc1)NC(=O)[C@H](CCCNC(=N)N)NC(=O)CCC(=O)O)C(=O)N[C@@H](CCCNC(=N)N)C(=O)N[C@@H](Cc1ccc(O)cc1)C(N)=O : 6.85
3. CC(C)C[C@H](NC(=O)[C@@H]1CCCNC(=N)NC(=O)NCCCCNC(=O)CCC(=O)N[C@@H](CCCNC(=N)N)C(=O)N1)C(=O)N[C@@H](CCCNC(=N)N)C(=O)N[C@@H](Cc1ccc(O)cc1)C(N)=O (HELM PEPTIDE1{R.[N=C(NCCC[C@H](N[*:1])C(=O)[*:2])N[*:3]].L.R.Y.[am]}|CHEM1{[O=C(CCC(=O)[*:1])NCCCCNC(=O)[*:2]]}$PEPTIDE1,CHEM1,1:R1-1:R1|PEPTIDE1,CHEM1,2:R3-1:R2$$$V2.0) : 7.03

* * *

Here, each record is paired with measured remaining at 6 h data.
- assay-comment: Stability in human plasma assessed as intact peptide measured after 6 hr at 37 degC by RP-HPLC analysis
- Format: ADME, cell-free
- test-settings: read-out: Stability
experimental-readout: remaining at 6 h (%)

1) CC(C)C[C@H](NC(=O)[C@H](CCCNC(=N)NC(=O)NCCCCN)NC(=O)[C@H](Cc1ccc(O)cc1)NC(=O)[C@H](CCCNC(=N)N)NC(=O)CCC(=O)O)C(=O)N[C@@H](CCCNC(=N)N)C(=O)N[C@@H](Cc1ccc(O)cc1)C(N)=O : 49
2) CC(C)C[C@H](NC(=O)[C@H](CCCNC(=N)NC(=O)NCCCCN)NC(=O)[C@H](Cc1c[nH]c2ccccc12)NC(=O)[C@H](CCCNC(=N)N)NC(=O)CCC(=O)O)C(=O)N[C@@H](CCCNC(=N)N)C(=O)N[C@@H](Cc1ccc(O)cc1)C(N)=O : 67

* * *

- assay-comment: Stability in human plasma assessed as half life at 37 degC by RP-HPLC analysis
- Type: ADME, cell-free
Residues, ends and D or L forms follow the SMILES beside them.
experimental-readout: half-life (h)

1) CC(C)C[C@H](NC(=O)[C@H](CCCNC(=N)NC(=O)NCCCCN)NC(=O)[C@H](Cc1c[nH]c2ccccc12)NC(=O)[C@H](CCCNC(=N)N)NC(=O)CCC(=O)O)C(=O)N[C@@H](CCCNC(=N)N)C(=O)N[C@@H](Cc1ccc(O)cc1)C(N)=O : 7.9
2) CC(C)C[C@H](NC(=O)[C@H](CCCNC(=N)NC(=O)NCCCCN)NC(=O)[C@H](Cc1ccc(O)cc1)NC(=O)[C@H](CCCNC(=N)N)NC(=O)CCC(=O)O)C(=O)N[C@@H](CCCNC(=N)N)C(=O)N[C@@H](Cc1ccc(O)cc1)C(N)=O : 5.9
3) CC(=O)N[C@@H](CCCNC(=N)N)C(=O)N[C@@H](Cc1ccc(O)cc1)C(=O)N[C@@H](CCCN/C(N)=N/C(=O)NCCCCN)C(=O)N[C@@H](CC(C)C)C(=O)N[C@@H](CCCNC(=N)N)C(=O)N[C@@H](Cc1ccc(O)cc1)C(N)=O (HELM PEPTIDE1{[ac].R.Y.[NCCCCNC(=O)/N=C(\N)NCCC[C@H](N[*:1])C(=O)[*:2]].L.R.Y.[am]}$$$$V2.0) : 1.7

* * *

- target: UniProt:P50391
- assay-comment: Displacement of [3H]UR-KK200 from human neuropeptide Y Y4 receptor expressed in CHO-mtAEQ cells co-expressing Gqi5 assessed as fold change in affinity measured after 90 mins by scintillation counting analysis relative to Ac-Arg-Tyr-Arg-Leu-Arg-Tyr-NH2
- Format: cell-based
- test-settings: filed as agonist
Residues, ends and D or L forms follow the SMILES beside them.
experimental-readout: fold change (FC)

1. CC(C)C[C@H](NC(=O)[C@@H]1CCCNC(=N)NC(=O)NCCCCNC(=O)CCC(=O)N[C@@H](CCCCN)C(=O)N[C@@H](Cc2ccc(O)cc2)C(=O)N1)C(=O)N[C@@H](CCCNC(=N)N)C(=O)N[C@@H](Cc1ccc(O)cc1)C(N)=O (HELM PEPTIDE1{K.Y.[N=C(NCCC[C@H](N[*:1])C(=O)[*:2])N[*:3]].L.R.Y.[am]}|CHEM1{[O=C(CCC(=O)[*:1])NCCCCNC(=O)[*:2]]}$PEPTIDE1,CHEM1,1:R1-1:R1|PEPTIDE1,CHEM1,3:R3-1:R2$$$V2.0) : 14

* * *

- target: Neuropeptide Y receptor type 4 (Homo sapiens, UniProt P50391)
- Sequence (P50391 whole entry): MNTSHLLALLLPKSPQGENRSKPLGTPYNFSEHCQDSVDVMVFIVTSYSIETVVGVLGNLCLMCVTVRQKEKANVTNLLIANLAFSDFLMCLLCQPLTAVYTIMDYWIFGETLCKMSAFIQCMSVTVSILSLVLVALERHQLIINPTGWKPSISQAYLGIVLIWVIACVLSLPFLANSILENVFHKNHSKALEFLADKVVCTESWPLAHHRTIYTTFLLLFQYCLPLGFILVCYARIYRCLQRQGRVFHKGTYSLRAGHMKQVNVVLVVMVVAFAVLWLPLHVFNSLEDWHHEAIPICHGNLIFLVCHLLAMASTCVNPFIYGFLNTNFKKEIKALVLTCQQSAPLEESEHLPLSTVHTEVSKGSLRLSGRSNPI
- assay-comment: Intrinsic activity at human neuropeptide Y Y4 receptor expressed in HEK293T-ARRB2 cells assessed as stimulation of beta-arrestin 2 recruitment by multimode plate reader relative to hPP
- Assay type: functional, cell-based
Activity calls are given as the source filed them. No cut-off for these calls is given here. Residues, ends and D or L forms follow the SMILES beside them.
experimental-readout: Intrinsic activity

1. CC(C)C[C@@H]1NC(=O)[C@H](CCCNC(=N)N)NC(=O)[C@H](Cc2ccc(O)cc2)NC(=O)[C@H](CCCNC(=N)N)NC(=O)CCC(=O)NCCCNC(=O)NC(=N)NCCC[C@@H](C(=O)N[C@@H](Cc2ccc(O)cc2)C(N)=O)NC1=O : inactive
2. CC(C)C[C@H](NC(=O)[C@@H]1CC(=O)NCC(=O)N[C@H](CCCNC(=N)N)C(=O)N[C@@H](CCCNC(=N)N)C(=O)N1)C(=O)N[C@@H](CCCNC(=N)N)C(=O)N[C@@H](Cc1ccc(O)cc1)C(N)=O : inactive
3. CC(C)C[C@H](NC(=O)[C@H](CCCNC(=N)N)NC(=O)[C@@H]1CCC(=O)N[C@@H](CCCNC(=N)N)C(=O)NCC(=O)N[C@@H](Cc2ccc(O)cc2)C(=O)N1)C(=O)N[C@@H](CCCNC(=N)N)C(=O)N[C@@H](Cc1ccc(O)cc1)C(N)=O (HELM PEPTIDE1{R.G.Y.E.R.L.R.Y.[am]}$PEPTIDE1,PEPTIDE1,1:R1-4:R3$$$V2.0) : 74%
4. CC(C)C[C@H](NC(=O)[C@H](CCCNC(=N)NC(=O)NCCCCN)NC(=O)[C@H](Cc1c[nH]c2ccccc12)NC(=O)[C@H](CCCNC(=N)N)NC(=O)CCC(=O)O)C(=O)N[C@@H](CCCNC(=N)N)C(=O)N[C@@H](Cc1ccc(O)cc1)C(N)=O : 76%

* * *

- assay-comment: Stability in human plasma assessed as intact peptide measured after 24 hrs at 37 degC by RP-HPLC analysis
- Format: ADME, cell-free
- test-settings: read-out: Stability
Measured remaining at 24 h accompanies every entry in the list below.
experimental-readout: remaining at 24 h (%)

1. CC(C)C[C@H](NC(=O)[C@H](CCCNC(=N)NC(=O)NCCCCN)NC(=O)[C@H](Cc1ccc(O)cc1)NC(=O)[C@H](CCCNC(=N)N)NC(=O)CCC(=O)O)C(=O)N[C@@H](CCCNC(=N)N)C(=O)N[C@@H](Cc1ccc(O)cc1)C(N)=O : 3
2. CC(C)C[C@H](NC(=O)[C@H](CCCNC(=N)NC(=O)NCCCCN)NC(=O)[C@H](Cc1c[nH]c2ccccc12)NC(=O)[C@H](CCCNC(=N)N)NC(=O)CCC(=O)O)C(=O)N[C@@H](CCCNC(=N)N)C(=O)N[C@@H](Cc1ccc(O)cc1)C(N)=O : 3

* * *

Reported Ki values for the following molecules.
- target: Neuropeptide Y receptor type 5 (Homo sapiens, UniProt Q15761)
- Sequence (Q15761 whole entry): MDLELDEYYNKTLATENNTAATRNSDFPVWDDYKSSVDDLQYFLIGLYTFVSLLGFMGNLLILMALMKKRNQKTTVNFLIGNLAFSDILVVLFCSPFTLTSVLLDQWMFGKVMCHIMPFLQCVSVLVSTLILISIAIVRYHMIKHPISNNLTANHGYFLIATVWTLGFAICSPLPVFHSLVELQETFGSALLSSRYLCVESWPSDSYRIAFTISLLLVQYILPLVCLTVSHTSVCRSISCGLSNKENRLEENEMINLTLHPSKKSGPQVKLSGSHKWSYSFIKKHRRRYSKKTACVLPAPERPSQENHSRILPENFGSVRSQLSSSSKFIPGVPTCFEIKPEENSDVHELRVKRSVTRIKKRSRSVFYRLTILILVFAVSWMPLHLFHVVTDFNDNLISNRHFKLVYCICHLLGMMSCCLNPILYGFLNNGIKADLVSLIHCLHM
- assay-comment: Displacement of [3H]propionyl-pNPY from human neuropeptide Y Y5 receptor in human HEC-1B cells measured after 90 mins by scintillation counting analysis
- Format: cell-based, HEC-1B cell line
- test-settings: read-out: pKi (converted)
Residues, ends and D or L forms follow the SMILES beside them.
experimental-readout: Ki

1) CC(C)C[C@H](NC(=O)[C@@H]1CCCNC(=N)NC(=O)NCCCCNC(=O)CCC(=O)N[C@@H](CCCCN)C(=O)N[C@@H](Cc2ccc(O)cc2)C(=O)N1)C(=O)N[C@@H](CCCNC(=N)N)C(=O)N[C@@H](Cc1ccc(O)cc1)C(N)=O (HELM PEPTIDE1{K.Y.[N=C(NCCC[C@H](N[*:1])C(=O)[*:2])N[*:3]].L.R.Y.[am]}|CHEM1{[O=C(CCC(=O)[*:1])NCCCCNC(=O)[*:2]]}$PEPTIDE1,CHEM1,1:R1-1:R1|PEPTIDE1,CHEM1,3:R3-1:R2$$$V2.0) : > 3.16 µM
2) N=C(N)NCCC[C@@H]1NC(=O)CCC(=O)NCCCCNC(=O)NC(=N)NCCC[C@@H](C(=O)N[C@@H](Cc2c[nH]c3ccccc23)C(=O)N[C@@H](CCCNC(=N)N)C(=O)N[C@@H](Cc2ccc(O)cc2)C(N)=O)NC(=O)[C@H](Cc2ccc(O)cc2)NC1=O (HELM PEPTIDE1{R.Y.[N=C(NCCC[C@H](N[*:1])C(=O)[*:2])N[*:3]].W.R.Y.[am]}|CHEM1{[O=C(CCC(=O)[*:1])NCCCCNC(=O)[*:2]]}$PEPTIDE1,CHEM1,1:R1-1:R1|PEPTIDE1,CHEM1,3:R3-1:R2$$$V2.0) : > 10 µM
3) CC(C)C[C@H](NC(=O)[C@@H]1CCCNC(=N)NC(=O)NCCCCNC(=O)CCC(=O)N[C@@H](CCCNC(=N)N)C(=O)N[C@@H](Cc2c[nH]c3ccccc23)C(=O)N1)C(=O)N[C@@H](CCCNC(=N)N)C(=O)N[C@@H](Cc1ccc(O)cc1)C(N)=O : > 1 µM
